# System: E.cloacae C4008
# ASSAY_NAME: In vitro antibacterial activity, minimum inhibitory concentration
# Format: cell-based
# CONDITION_DETAILS: Enterobacter cloacae; E.cloacae C4008; read-out: Minimum Inhibitory Concentration (MIC)
MEASURE: MIC (µg/mL)

Please review the following examples before continuing.
Please report MIC for the following compound: CO/N=C(\C(=O)N[C@@H]1C(=O)N2C(C(=O)[O-])=C(C[n+]3cccc4c3CCC4)CS[C@H]12)c1csc(N)n1 [CPR, Cefpirome, reference compound] 0.013

Please report MIC for the following compound: CO/N=C(\C(=O)N[C@@H]1C(=O)N2C(C(=O)[O-])=C(C[n+]3ccc4[nH]c(=NC#N)[nH]c4c3)CS[C@H]12)c1csc(N)n1 [Ex. 3] 0.013

I = CO/N=C(\C(=O)N[C@@H]1C(=O)N2C(C(=O)[O-])=C(C[n+]3ccc4c(c3)[nH]c(=O)n4C)CS[C@H]12)c1nsc(N)n1 [Ex. 6]
II = Nc1nc(/C(=N/O)C(=O)N[C@@H]2C(=O)N3C(C(=O)[O-])=C(C[n+]4ccc5[nH]c(=O)[nH]c5c4)CS[C@H]23)ns1 [Ex. 7]
III = CO/N=C(\C(=O)N[C@@H]1C(=O)N2C(C(=O)[O-])=C(C[n+]3ccc4[nH]c(=O)[nH]c4c3)CS[C@H]12)c1nsc(N)n1 [Ex. 5]
IV = CO/N=C(\C(=O)N[C@@H]1C(=O)N2C(C(=O)[O-])=C(C[n+]3ccc4c(c3)NC(=C[N+](=O)[O-])N4)CS[C@H]12)c1csc(N)n1 [Ex. 1]
Let's sort these by MIC, smallest first. Go ahead? The response must list the labels following the requested ordering. III, I, IV, II
